- target or system: soluble HLA-B*0702 (Homo sapiens, UniProt P01889)
- experiment summary: Fluorescence polarization
- Type: binding
Where no end group is shown, it is not given here.
readout name: pIC50
For clarity, pIC50 is expressed as the negative log10 of concentration in mol/L.

Ask | Given RSNNNTRKSI , respond with its pIC50.
Reply | 4.67

Ask | Given IPGPGRHPL , respond with its pIC50.
Reply | 5.49

Ask | Given FSVRPQVPL , respond with its pIC50.
Reply | 4.15

Ask | Given SPRALNAWV , respond with its pIC50.
Reply | 4.93

###

Assignment: determine reported IC50 for the given sequences.
- target or system: soluble HLA-B*0702 (Homo sapiens, UniProt P01889)
- experiment summary: Fluorescence polarization
- Format: binding
Where no end group is shown, it is not given here.
Give just the numeric value; µM need not be written.

Ask | Given SPVRPQVPL , respond with its IC50.
Reply | 4.68

Ask | Given SPRPLNAWV , respond with its IC50.
Reply | 15.1

Ask | Given RPNNNTRKST , respond with its IC50.
Reply | 11

Ask | Given TPGPGIRYPM , respond with its IC50.
Reply | 3.16

Ask | Given TPGPGPRYPM , respond with its IC50.
Reply | 3.72

Ask | Given TSGPGTRFPL , respond with its IC50.
Reply | 70.8
